Target: Pyruvate kinase PKM (Homo sapiens) (UniProt P14618)
Sequence (P14618 whole entry, looked up, canonical isoform): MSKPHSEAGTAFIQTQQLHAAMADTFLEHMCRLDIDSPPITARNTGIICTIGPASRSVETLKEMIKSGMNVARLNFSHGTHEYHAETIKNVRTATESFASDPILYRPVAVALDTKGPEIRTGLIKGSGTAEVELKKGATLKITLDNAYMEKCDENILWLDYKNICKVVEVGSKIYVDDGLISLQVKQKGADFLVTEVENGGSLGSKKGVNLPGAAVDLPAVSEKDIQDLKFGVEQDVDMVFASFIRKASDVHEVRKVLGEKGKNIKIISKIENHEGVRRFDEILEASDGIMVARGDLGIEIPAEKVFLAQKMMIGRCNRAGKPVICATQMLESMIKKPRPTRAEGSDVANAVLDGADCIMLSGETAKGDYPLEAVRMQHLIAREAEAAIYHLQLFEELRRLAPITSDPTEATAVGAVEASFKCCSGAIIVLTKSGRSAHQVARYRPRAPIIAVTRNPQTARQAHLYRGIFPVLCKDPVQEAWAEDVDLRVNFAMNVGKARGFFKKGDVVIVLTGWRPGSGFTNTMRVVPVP
Experiment: Confirmation Concentration-Response Assay for Activators of Human Muscle isoform 2 Pyruvate Kinase: for Probe SAR; further: nearly all actives have a fitted effect of over 60% in size
Details: purified PKM2, ATP generation, Kinase-Glo luminescence; series mostly up to 57.5 µM
Records with an inconclusive call do not appear. Activity calls are given as the source filed them. The call rests on the fitted dose curve; in most records, active means well fitted activation curve with a large enough effect; inconclusive means small, poorly fitted or top-dose-only effect; inactive means flat fitted curve, though single readings scatter.
Select the matching outcome among label 1 (active), label 0 (inactive)

- Smiles String: "CC(=O)Nc1ccc(OC2=NS(=O)(=O)c3ccccc32)cc1"
  Target Or Test System: "Pyruvate kinase PKM (Homo sapiens) (UniProt P14618)"
  Answer Label: "label 0"
- Smiles String: "Cc1cc2c(s1)c1cnn(Cc3cc(F)c(F)cc3F)c(=O)c1n2C"
  Target Or Test System: "Pyruvate kinase PKM (Homo sapiens) (UniProt P14618)"
  Answer Label: "label 1"
- Smiles String: "Cc1cc(NS(=O)(=O)c2ccc3c(c2)CCC(=O)N3)ccc1Cl"
  Target Or Test System: "Pyruvate kinase PKM (Homo sapiens) (UniProt P14618)"
  Answer Label: "label 1"
- Smiles String: "O=C1NS(=O)(=O)c2ccccc21"
  Target Or Test System: "Pyruvate kinase PKM (Homo sapiens) (UniProt P14618)"
  Answer Label: "label 0"
- Smiles String: "COC(=O)c1ccccc1S(=O)(=O)Nc1ccc(OC)cc1"
  Target Or Test System: "Pyruvate kinase PKM (Homo sapiens) (UniProt P14618)"
  Answer Label: "label 0"
- Smiles String: "O=C1CCc2cc(S(=O)(=O)Nc3ccc(F)c(Cl)c3)ccc2N1"
  Target Or Test System: "Pyruvate kinase PKM (Homo sapiens) (UniProt P14618)"
  Answer Label: "label 1"
- Smiles String: "CC(=O)Nc1cccc(S(=O)(=O)N2CCN(S(=O)(=O)c3ccc4c(c3)OCCO4)CC2)c1"
  Target Or Test System: "Pyruvate kinase PKM (Homo sapiens) (UniProt P14618)"
  Answer Label: "label 1"
- Smiles String: "Cc1ccc(NS(=O)(=O)c2cc3c(cc2-c2ccco2)NC(=O)CO3)cc1C"
  Target Or Test System: "Pyruvate kinase PKM (Homo sapiens) (UniProt P14618)"
  Answer Label: "label 1"
- Smiles String: "Cc1ccc(Nc2c(-c3ccsc3)nc3c(C)cccn23)cc1"
  Target Or Test System: "Pyruvate kinase PKM (Homo sapiens) (UniProt P14618)"
  Answer Label: "label 0"
- Smiles String: "CC(=O)Nc1ccc(S(=O)(=O)N2CCN(S(=O)(=O)c3ccc4c(c3)OCCO4)CC2)cc1"
  Target Or Test System: "Pyruvate kinase PKM (Homo sapiens) (UniProt P14618)"
  Answer Label: "label 1"

Query: // param item: Cc1ccc(NS(=O)(=O)c2ccc3c(c2)CCC(=O)N3)cc1F ; yields the recorded call
Result: label 1

Query: I would be grateful if you could indicate the recorded call for Cc1ccc(NS(=O)(=O)c2cc3c(cc2Br)NC(=O)CO3)cc1C .
Result: label 1

Query: Give the logged outcome of this assay for the following compound: COc1cc(F)c(S(=O)(=O)N2CCN(S(=O)(=O)c3cccc(NC(C)=O)c3)CC2)c(F)c1
Result: label 1

----------
Target: Pyruvate kinase PKM (Homo sapiens) (UniProt P14618)
Assay: Confirmation Concentration-Response Assay for Activators of Human Muscle isoform 2 Pyruvate Kinase: for Probe SAR; further: nearly all actives have a fitted effect of over 60% in size; further: potency means the concentration at half of the fitted maximal effect
Conditions: purified PKM2, ATP generation, Kinase-Glo luminescence; series mostly up to 57.5 µM
Records with an inconclusive call do not appear. Activity calls are given as the source filed them. Calls follow the shape of the dose curve; as a rule, active = well fitted activation curve with a large enough effect; inconclusive = small, poorly fitted or top-dose-only effect; inactive = flat fitted curve, though single readings scatter.
Experimental Readout: Potency

Look over these answered cases.
- Smiles String: "COc1ccc(N2C(=O)c3ccccc3S2(=O)=O)cc1"
  Endpoint Value: "inactive"
- Smiles String: "O=C1CCc2cc([S+](=O)([O-])NC3CCOCC3)ccc2N1"
  Endpoint Value: "inactive"
- Smiles String: "O=C(O)c1ccccc1OC1=NS(=O)(=O)c2ccccc21"
  Endpoint Value: "inactive"
- Smiles String: "CSc1cc2c(s1)c1cnn(Cc3cccc(O)c3)c(=O)c1n2C"
  Endpoint Value: "41.1 nM (active)"
- Smiles String: "Cc1ccc(Nc2c(-c3ccc(C)o3)nc3ccccn23)cc1"
  Endpoint Value: "inactive"

Consider the record given below.
Query: Look up Potency for this compound: Cc1ccc(NS(=O)(=O)c2cc3c(cc2/C=C/c2ccccc2)NC(=O)CO3)cc1C
Result: inactive
